Biological target: CNS nicotinic receptors (Rattus norvegicus, UniProt P09483+P12390)
Sequence (P09483 31-630): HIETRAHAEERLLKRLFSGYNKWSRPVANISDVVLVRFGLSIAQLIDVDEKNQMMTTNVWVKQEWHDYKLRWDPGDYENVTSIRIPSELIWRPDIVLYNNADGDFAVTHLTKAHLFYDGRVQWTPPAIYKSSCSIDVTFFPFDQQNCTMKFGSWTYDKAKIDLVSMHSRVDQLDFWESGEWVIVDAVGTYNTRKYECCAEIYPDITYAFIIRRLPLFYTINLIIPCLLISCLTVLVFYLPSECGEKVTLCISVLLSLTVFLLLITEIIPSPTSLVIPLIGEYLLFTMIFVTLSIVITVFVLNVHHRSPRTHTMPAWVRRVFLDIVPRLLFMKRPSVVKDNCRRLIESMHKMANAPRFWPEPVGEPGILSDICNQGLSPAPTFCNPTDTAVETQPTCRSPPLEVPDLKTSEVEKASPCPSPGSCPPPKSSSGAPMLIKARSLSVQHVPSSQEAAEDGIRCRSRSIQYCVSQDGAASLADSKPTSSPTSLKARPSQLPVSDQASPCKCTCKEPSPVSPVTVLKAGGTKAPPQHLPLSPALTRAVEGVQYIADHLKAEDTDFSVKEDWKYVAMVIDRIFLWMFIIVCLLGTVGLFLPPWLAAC
Sequence (P12390 25-500): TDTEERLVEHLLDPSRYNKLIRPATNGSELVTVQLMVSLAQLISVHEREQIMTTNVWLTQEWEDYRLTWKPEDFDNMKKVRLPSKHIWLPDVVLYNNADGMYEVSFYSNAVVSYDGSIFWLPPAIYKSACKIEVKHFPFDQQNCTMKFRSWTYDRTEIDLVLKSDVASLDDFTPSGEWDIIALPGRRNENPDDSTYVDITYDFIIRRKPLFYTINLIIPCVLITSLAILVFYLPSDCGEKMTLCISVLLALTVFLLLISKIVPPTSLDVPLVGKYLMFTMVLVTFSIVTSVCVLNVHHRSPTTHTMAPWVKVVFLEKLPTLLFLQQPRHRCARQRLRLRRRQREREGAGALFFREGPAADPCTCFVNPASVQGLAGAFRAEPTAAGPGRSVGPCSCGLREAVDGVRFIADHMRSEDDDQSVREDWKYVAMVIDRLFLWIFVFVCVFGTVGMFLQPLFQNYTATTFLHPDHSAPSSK
Experiment: Determination of binding to relevant receptor sites
Conditions: binding to certain CNS nicotinic receptors; read-out: Ki (inhibition constant, calculated from IC50 by the method of Cheng et al.)
experimental-readout: pKi
To interpret pKi, take it as minus log10 of a concentration measured in moles per litre.

[
  {
    "compound": "CN[C@@H](C)C/C=C/c1cncc(OC(C)C)c1 [Sample No. 1]",
    "pKi": 8.22
  }
]

Let us examine a further case.
**Query** Provide pKi, recorded with CNS nicotinic receptors (Rattus norvegicus, UniProt P09483+P12390), of CN[C@@H](C)C/C=C/c1cncc(OC(C)C)c1 [Sample No. 2]
**Result** 8.30
